Where these numbers come from: patent US20230374132A1

- target_or_system: T1, human CD3E&G complex (Sino Biological Inc., CT041-H0305H) (human, UniProt P07766 23-126; P09693 23-116)
- T1 construct: bought heterodimer; also called human CD3E&G antigen
- T1 sequence (P07766 23-126, chain 1 of 2): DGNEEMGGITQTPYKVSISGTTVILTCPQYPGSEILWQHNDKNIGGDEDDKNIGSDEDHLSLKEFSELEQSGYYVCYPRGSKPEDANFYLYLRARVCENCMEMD
- T1 sequence (P09693 23-116, chain 2 of 2): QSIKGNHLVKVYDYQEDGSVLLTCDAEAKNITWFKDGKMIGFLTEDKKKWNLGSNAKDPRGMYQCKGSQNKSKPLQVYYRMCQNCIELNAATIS
- assay_summary: BLI, antibody on sensor
quantity_name: kon (M⁻¹ s⁻¹)
The response must be a number in M⁻¹ s⁻¹ with no trailing unit.

Examples from the recorded data:
Query: Provide kon value for the following binder: hzsp34.115 (antibody, human IgG1, lambda, L234A L235A, V domains shown, CDR mutant of hzsp34.24; IgG1 L234A L235A, lambda) VH: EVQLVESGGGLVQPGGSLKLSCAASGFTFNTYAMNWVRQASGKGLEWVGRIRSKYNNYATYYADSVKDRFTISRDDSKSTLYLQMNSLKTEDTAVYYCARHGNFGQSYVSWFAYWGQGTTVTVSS VL: QAVVTQEPSLTVSPGGTVTLTCRSSTGAVTTSNYANWVQQKPGQAPRGLIGGTNSRAPGVPARFSGSLLGDKAALTLLGAQPEDEAEYYCALWYSNLWVFGQGTKLTVLG
Reply: 238000

Query: Give the measured kon for hzsp34.85 (antibody, human IgG1, lambda, L234A L235A, V domains shown, CDR mutant of hzsp34.24; IgG1 L234A L235A, lambda) VH: EVQLVESGGGLVQPGGSLKLSCAASGFTFNTYAMNWVRQASGKGLEWVGRIRSKYNGYATYYADSVKDRFTISRDDSKSTLYLQMNSLKTEDTAVYYCARHGNFGQSYVSWFAYWGQGTTVTVSS VL: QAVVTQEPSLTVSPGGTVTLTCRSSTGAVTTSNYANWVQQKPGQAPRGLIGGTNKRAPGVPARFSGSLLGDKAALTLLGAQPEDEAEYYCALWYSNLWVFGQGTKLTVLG
Reply: 249000

Now consider a different binder.
Query: For the binder hzsp34.106 (antibody, human IgG1, lambda, L234A L235A, V domains shown, CDR mutant of hzsp34.24; IgG1 L234A L235A, lambda) VH: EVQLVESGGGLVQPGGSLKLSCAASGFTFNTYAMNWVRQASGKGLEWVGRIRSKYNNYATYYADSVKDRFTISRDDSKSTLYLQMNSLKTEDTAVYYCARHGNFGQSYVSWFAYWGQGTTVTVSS VL: QAVVTQEPSLTVSPGGTVTLTCRSSTGAVTTSGYANWVQQKPGQAPRGLIGGTNKRAPGVPARFSGSLLGDKAALTLLGAQPEDEAEYYCALWYSNLWVFGQGTKLTVLG , report kon.
Reply: 230000
